Test system: HS 578T breast
protocol.notes: NCI tumour cell line growth inhibition, 48 h
observation.type: TGI

| compound | observation.type | data.value |
| --- | --- | --- |
| CC(CSc1nc2c(c(=N)n1-c1ccccc1)c(=S)n(-c1ccccc1)c(=S)n2-c1ccccc1)CN(C)C (stereo unspecified) | TGI | > 28.7 µM |
| CC(=O)CCN1CC2CN=NC2(C#N)C1 (stereo unspecified) | TGI | > 95.7 µM |
| COc1cc([N+](=O)[O-])c(S(=O)(=O)O)cc1-[n+]1nc(C(=O)Nc2ccccc2)nn1-c1ccc([N+](=O)[O-])c(S(=O)(=O)[O-])c1 | TGI | > 100 µM |
| COC1CCC(OS(C)(=O)=O)C(C)O1 (stereo unspecified) | TGI | > 10 µM |
| Cn1cc(C2=C(c3cccc([N+](=O)[O-])c3)C(=O)NC2=O)c2ccccc21 | TGI | > 25 µM |
| Oc1ccccc1/C=N/c1nc(-c2ccccc2)cs1 | TGI | > 100 µM |

###

This listing pairs compounds with measured TGI.
Test system: LOX IMVI melanoma
protocol.notes: NCI tumour cell line growth inhibition, 48 h
Where a SMILES comes first, the peptide text is derived from it. The star is where a group is joined. Fmoc = O=C(OCC1c2ccccc2-c2ccccc21)*; OBn = c1ccc(CO*)cc1; tBu = CC(C)(C)*

| compound | TGI |
| --- | --- |
| COC(=O)C1C(=O)NC2(C)CC1c1ccccc1O2 (stereo not given) | > 100 µM |
| CC(=O)CCN1CC2CN=NC2(C#N)C1 (stereo not given) | > 100 µM |
| COc1ccc(/C=C2\N=C3N(Cc4ccccc4)C=C(N)N3C2=O)cc1 | > 100 µM |
| CCOc1ccc(N=Nc2c(-c3ccccc3)nn(C(=O)CC(=O)Nc3ccccc3Cl)c2-c2ccccc2)cc1 | > 100 µM |
| COc1cc([C@H]2c3cc4c(cc3[C@H](NCc3ccc(F)cc3)C3COC(=O)[C@H]32)OCO4)cc(OC)c1O (stereo not given in full) | 17 µM |
| CC(OC(C)(C)C)C(NC(=O)OCC1c2ccccc2-c2ccccc21)C(=O)NC(Cc1ccccc1)C(=O)OCc1ccccc1 (stereo not given) (Fmoc-Thr(tBu)-Phe-OBn; configuration not given here) | > 100 µM |
| Cc1c(-c2ccccc2)oc(=O)c2ccccc12 | 40.4 µM |
| Cn1cc(C2=C(c3cccc([N+](=O)[O-])c3)C(=O)NC2=O)c2ccccc21 | > 25 µM |
| COC(=O)c1c2c(cc3c1CC1(Cc4cc5c(cc4C1)CCCC5)C3)CCCC2 | > 100 µM |
| O=C(O)C1C2OC(C(Br)C2Br)C1C(=O)O (stereo not given) | > 100 µM |
| CC(CSc1nc2c(c(=N)n1-c1ccccc1)c(=S)n(-c1ccccc1)c(=S)n2-c1ccccc1)CN(C)C (stereo not given) | 2.57 µM |
| O=[N+]([O-])/C(=C/C=C/c1ccccc1)c1ccccc1 | 3.29 µM |
| CCOC(=O)/C(=C/c1cn(C(C)=O)c2ccccc12)P(=O)(OC)OC | 79.2 µM |
| COC(=O)c1sc(=S)c2sc(C(=O)OC)c(C(=O)OC)c2c1C(=O)OC | > 100 µM |
| CC(C)(C)[C@H]1NC(=O)CN1C(=O)OCc1ccccc1 | > 100 µM |
| CCOC(=O)c1c(-c2ccc(Cl)cc2)c(C#N)c(=S)n(C2OC(COC(C)=O)C(OC(C)=O)C(OC(C)=O)C2OC(C)=O)c1C (stereo not given) | > 100 µM |
| CCOc1ccccc1NC(=O)C1=C(C)NC(C)=C(C(=O)Nc2ccccc2OCC)C1c1ccc2c(c1)OCO2 | > 100 µM |
| COc1ccc(C2C(C(=O)O)=C(COC(C)=O)Oc3cc4c(cc32)OCO4)c(OC)c1 (stereo not given) | > 100 µM |
| C[N+](C)([O-])C12CC3CC(CC(C3)C1)C2 | 63.8 µM |
| Nc1ncnc2c1ncn2C1C(O)C=C(CO)C1O (stereo not given) | > 625 µM |
| CSc1ccc2c(c1)N(CCCN(C)C)c1ccccc1S2 | 32.4 µM |
| COc1ccc(C2CC(c3cccc(Nc4ccncc4)c3)=NN2c2ccccc2)cc1 (stereo not given) | 3.11 µM |
| N#CC(C#N)=C/C=C/c1ccccc1[N+](=O)[O-] | 7.09 µM |
| Cc1ccc(-n2cc(/C(N)=N/O)c3ccccc3c2=O)cc1 | > 100 µM |
| O=C(Nc1c(Cl)cc([N+](=O)[O-])cc1Cl)C(=O)C(C(=O)c1ccncc1)C1OC(=O)c2ccccc21 (stereo not given) | > 100 µM |
